Some compounds, each annotated with its measured inhibition at 1 µM.
SYSTEM TESTED: human muscarinic acetylcholine M3 receptor (M3-ACh) (Homo sapiens, UniProt P20309)
Construct: expressed in transfected cells; host or cells: CHO-K1 (Chinese Hamster Ovary) cell membranes
Sequence (P20309 whole entry): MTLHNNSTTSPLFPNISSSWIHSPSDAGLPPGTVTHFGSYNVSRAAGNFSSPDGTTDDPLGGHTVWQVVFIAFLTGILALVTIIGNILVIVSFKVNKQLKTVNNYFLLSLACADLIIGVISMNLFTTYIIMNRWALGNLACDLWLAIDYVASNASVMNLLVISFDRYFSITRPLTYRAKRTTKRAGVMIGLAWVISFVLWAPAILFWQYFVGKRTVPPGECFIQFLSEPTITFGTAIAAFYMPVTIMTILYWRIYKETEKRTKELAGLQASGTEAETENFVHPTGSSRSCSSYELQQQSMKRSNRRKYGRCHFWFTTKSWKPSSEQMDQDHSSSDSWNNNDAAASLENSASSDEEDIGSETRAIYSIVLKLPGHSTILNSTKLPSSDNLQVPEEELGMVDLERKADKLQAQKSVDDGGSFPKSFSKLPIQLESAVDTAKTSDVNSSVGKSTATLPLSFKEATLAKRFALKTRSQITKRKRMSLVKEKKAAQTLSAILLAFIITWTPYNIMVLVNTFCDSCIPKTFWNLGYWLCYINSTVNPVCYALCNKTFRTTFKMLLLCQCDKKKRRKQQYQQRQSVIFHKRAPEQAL
ASSAY METHOD TEXT: Muscarinic 3 Receptor Binding Assay, % inhibition specific binding at 1 μM
REPORTED CONDITIONS: 1 μM compound, % inhibition specific [3H]-NMS binding
Protocol: The following experimental procedure was used to determine the M3% inhibition at 1 μM of the compounds of Examples 116-263. Muscarinic 3 Receptor Binding Assay The activity (% inhibition specific binding) of compounds -on the M3 receptor is determined by competition binding of [^3H]N-methyl scopolamine (NMS) to CHO-K1 (Chinese Hamster Ovary) cell membranes expressing the human muscarinic acetylcholine M3 receptor (M3-ACh) in a scintillation proximity assay (SPA) format. […]
Use % as the unit, but write only the number.

COMPOUND	inhibition at 1 µM / %
O=C(CCCc1ccccc1)N1CCOC2(CCN(CCOc3ccc(CNC[C@H](O)c4ccc(O)c5[nH]c(=O)sc45)cc3)CC2)C1 [Example 229]	67

Given the entry Cc1cc(C(=O)N2CCOC3(CCN(CCCCCCCCCNC[C@H](O)c4ccc(O)c5[nH]c(=O)sc45)CC3)C2)c(C)s1 [Example 202] , what inhibition at 1 µM was observed with human muscarinic acetylcholine M3 receptor (M3-ACh) (Homo sapiens, UniProt P20309)? 99

Also need Cc1ccn(CC(=O)N2CCOC3(CCN(CCOc4ccc(CNC[C@H](O)c5ccc(O)c6[nH]c(=O)sc56)cc4)CC3)C2)n1 [Example 245] , thanks. 51

----------
SYSTEM TESTED: human muscarinic acetylcholine M3 receptor (M3-ACh) (Homo sapiens)
Construct: expressed in transfected cells; host or cells: CHO-K1 (Chinese Hamster Ovary) cell membranes
ASSAY METHOD TEXT: Muscarinic 3 Receptor Binding Assay ([3H]NMS competition, SPA)
REPORTED CONDITIONS: [3H]NMS 0.1 nM, CHO-K1 cell membranes, 16 hours at room temperature; read-out: M3 pIC50 (converted)
Note to self: class = bucket of IC50, per bin 1 (below 2 nM), bin 2 (2 nM to below 8 nM), bin 3 (8 nM or more)

Some solved entries appear below for comparison.
COMPOUND	LABEL
Cc1ccc(C(=O)N2CCOC3(CCN(Cc4cc(CCNC[C@H](O)c5ccc(O)c6[nH]c(=O)sc56)cs4)CC3)C2)s1 [Example 27, ditrifluoroacetate]	bin 2
Cc1ccc(C(=O)N2CCOC3(CCN(Cc4ccc(F)c(CCNC[C@H](O)c5ccc(O)c6[nH]c(=O)ccc56)c4F)CC3)C2)s1 [Example 35, ditrifluoroacetate]	bin 3
CC(C)c1nc(C(=O)N2CCOC3(CCN(Cc4cccc(CCNC[C@H](O)c5ccc(O)c6[nH]c(=O)sc56)c4F)CC3)C2)cs1 [Example 48, ditrifluoroacetate]	bin 1
O=C(c1csc(C(F)(F)F)n1)N1CCOC2(CCN(CCCCCCCCCNC[C@H](O)c3ccc(O)c4[nH]c(=O)sc34)CC2)C1	bin 1
Cc1ccc(C(=O)N2CC(F)(F)OC3(CCN(Cc4cccc(CCNC[C@H](O)c5ccc(O)c6[nH]c(=O)ccc56)c4)CC3)C2)s1 [Example 37, ditrifluoroacetate]	bin 2
CCCc1nc(C(=O)N2CCOC3(CCN(Cc4cccc(CCNC[C@H](O)c5ccc(O)c6[nH]c(=O)sc56)c4)CC3)C2)cs1 [Example 87, ditrifluoroacetate]	bin 1
O=C(c1csc(-c2ccccc2)n1)N1CCOC2(CCN(CCOc3ccc(CNC[C@H](O)c4ccc(O)c5[nH]c(=O)sc45)cc3)CC2)C1 [Example 112, ditrifluoroacetate]	bin 3
Cc1nc2cc(C(=O)N3CCOC4(CCN(Cc5cc(CCNC[C@H](O)c6ccc(O)c7[nH]c(=O)sc67)cs5)CC4)C3)ccc2s1 [Example 49, ditrifluoroacetate]	bin 3
CC(C)c1nc(C(=O)N2CCOC3(CCN(Cc4cccc(C(C)(C)CNC[C@H](O)c5ccc(O)c6[nH]c(=O)ccc56)c4F)CC3)C2)cs1 [Example 92, ditrifluoroacetate]	bin 3
CCCc1nc(C(=O)N2CCOC3(CCN(CCCCCCCCCNC[C@H](O)c4ccc(O)c5[nH]c(=O)sc45)CC3)C2)cs1	bin 1

Which band does CC(C)c1ccc(C(=O)N2CCOC3(CCN(Cc4cccc(CCNC[C@H](O)c5ccc(O)c6[nH]c(=O)sc56)c4)CC3)C2)s1 [Example 268, ditrifluoroacetate] fall in? bin 1

Also need CC(C)c1csc(C(=O)N2CCOC3(CCN(Cc4cc(F)cc(CCNC[C@H](O)c5ccc(O)c6[nH]c(=O)sc56)c4)CC3)C2)n1 [Example 53, ditrifluoroacetate] , thanks. bin 3
